Biological target: human σ1 receptor and human μ-opioid receptor
Test: Human σ1 receptor and human μ-opioid receptor radioligand assays (dual binding)
Details: combined class for Ki-μ ([3H]-DAMGO, transfected CHO-K1 membranes) and Ki-σ1 ([3H](+)-pentazocine, transfected HEK-293 membranes)
pKi: −log10 of the molar value.
Listed here are compounds together with their documented pKi.
measureName: pKi

| compoundSmiles | result |
| --- | --- |
| O=C(Cc1ccccn1)N1CCOCC12CCN(CCc1ccccc1)CC2 | ≤ 6.30 |
| O=C(c1cccnc1)N1CCOCC12CCN(CCc1ccccc1)CC2 | ≤ 6.30 |
| O=C(Cc1cccnc1)N1CCOCC12CCN(CCc1ccccc1)CC2 | ≤ 6.30 |
| O=C(CN1CCC2(CC1)COCCN2C(=O)c1ccccc1)c1ccccc1 | ≤ 6.30 |
